Molecular target: T1, Clostridium difficile toxin B, soluble full-length (TechLab) (Clostridium difficile, UniProt P18177 2-2366)
T1 construct: also called tcdB
T1 sequence (P18177 2-2366 limits assumed): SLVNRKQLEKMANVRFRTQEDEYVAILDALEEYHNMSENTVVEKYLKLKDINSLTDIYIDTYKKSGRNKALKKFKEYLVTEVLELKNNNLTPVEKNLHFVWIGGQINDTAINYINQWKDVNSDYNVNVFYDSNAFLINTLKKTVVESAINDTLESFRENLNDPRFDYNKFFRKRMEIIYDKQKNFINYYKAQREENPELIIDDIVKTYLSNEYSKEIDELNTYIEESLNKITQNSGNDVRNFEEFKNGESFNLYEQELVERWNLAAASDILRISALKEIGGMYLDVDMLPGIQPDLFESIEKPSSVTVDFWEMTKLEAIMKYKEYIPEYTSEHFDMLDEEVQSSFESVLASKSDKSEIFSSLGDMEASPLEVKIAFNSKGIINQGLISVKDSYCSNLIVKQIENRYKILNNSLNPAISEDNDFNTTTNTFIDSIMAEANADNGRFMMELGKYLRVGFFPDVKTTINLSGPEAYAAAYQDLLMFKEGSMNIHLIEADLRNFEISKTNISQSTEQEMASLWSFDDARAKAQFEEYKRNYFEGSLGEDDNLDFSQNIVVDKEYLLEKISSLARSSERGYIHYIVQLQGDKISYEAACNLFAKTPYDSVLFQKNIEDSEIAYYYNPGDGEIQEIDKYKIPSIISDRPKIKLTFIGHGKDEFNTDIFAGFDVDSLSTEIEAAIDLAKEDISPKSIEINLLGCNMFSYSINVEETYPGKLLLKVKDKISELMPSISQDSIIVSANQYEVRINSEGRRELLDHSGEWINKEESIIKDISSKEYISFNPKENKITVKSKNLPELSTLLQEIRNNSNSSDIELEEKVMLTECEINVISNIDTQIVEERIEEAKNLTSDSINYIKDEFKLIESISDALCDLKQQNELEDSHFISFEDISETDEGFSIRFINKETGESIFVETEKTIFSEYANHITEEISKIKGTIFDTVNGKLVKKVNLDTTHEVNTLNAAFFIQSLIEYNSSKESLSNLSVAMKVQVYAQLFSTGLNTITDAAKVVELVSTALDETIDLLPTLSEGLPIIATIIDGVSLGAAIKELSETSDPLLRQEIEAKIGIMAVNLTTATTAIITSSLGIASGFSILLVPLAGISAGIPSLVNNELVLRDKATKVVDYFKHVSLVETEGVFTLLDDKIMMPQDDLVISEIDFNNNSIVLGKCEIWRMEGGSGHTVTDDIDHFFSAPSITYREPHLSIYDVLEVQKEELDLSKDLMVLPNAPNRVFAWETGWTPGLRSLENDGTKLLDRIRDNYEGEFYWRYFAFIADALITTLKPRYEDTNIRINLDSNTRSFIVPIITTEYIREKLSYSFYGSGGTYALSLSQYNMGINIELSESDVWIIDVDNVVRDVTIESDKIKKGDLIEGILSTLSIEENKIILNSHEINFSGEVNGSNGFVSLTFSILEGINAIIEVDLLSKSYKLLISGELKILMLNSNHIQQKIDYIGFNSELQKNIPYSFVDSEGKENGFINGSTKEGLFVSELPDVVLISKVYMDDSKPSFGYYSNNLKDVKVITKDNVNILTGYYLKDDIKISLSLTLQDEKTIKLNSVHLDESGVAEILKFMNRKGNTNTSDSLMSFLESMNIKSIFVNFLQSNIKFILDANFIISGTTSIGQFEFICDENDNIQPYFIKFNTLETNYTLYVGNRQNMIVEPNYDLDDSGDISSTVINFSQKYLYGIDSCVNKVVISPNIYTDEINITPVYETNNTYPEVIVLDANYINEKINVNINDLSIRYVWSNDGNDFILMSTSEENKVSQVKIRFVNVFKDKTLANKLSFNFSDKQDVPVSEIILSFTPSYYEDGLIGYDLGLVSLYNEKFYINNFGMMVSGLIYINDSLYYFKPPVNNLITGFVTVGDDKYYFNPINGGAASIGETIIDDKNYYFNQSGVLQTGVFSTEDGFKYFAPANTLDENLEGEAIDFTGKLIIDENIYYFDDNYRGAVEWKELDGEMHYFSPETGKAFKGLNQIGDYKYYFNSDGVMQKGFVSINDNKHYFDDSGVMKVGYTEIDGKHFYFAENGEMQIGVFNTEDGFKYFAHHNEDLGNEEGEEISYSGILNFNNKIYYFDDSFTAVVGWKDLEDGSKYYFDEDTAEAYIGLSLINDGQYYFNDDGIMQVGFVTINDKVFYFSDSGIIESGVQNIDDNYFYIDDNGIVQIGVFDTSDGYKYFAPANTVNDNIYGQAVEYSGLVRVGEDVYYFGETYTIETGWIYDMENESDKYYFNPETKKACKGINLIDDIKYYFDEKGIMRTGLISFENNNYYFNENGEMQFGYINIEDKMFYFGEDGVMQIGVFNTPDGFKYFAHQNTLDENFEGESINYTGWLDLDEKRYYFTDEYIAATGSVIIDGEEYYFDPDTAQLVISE
Experiment: SPR Biacore T200, 37C, mAb capture
Rule: measured koff below 0.0004 s⁻¹ gets met; anything equal to or greater than 0.0004 s⁻¹ gets not met.

Example entries and their recorded answers appear below.
H1H3339P (antibody, V domains shown) VH: EVQLVESGGGLVQPGGSLRLSCAVSGFTFSIYAMSWVRQAPGKGLEWVSAISGSGDKTYYADSVKGRFTISRDNSKNTLYLQMNSLRAEDTAVFYCARGWELLNYWGQGTLVTVSS VL: DIQMTQSPSSLSASVGDRVTITCRASLDISNFLAWFQQKPGTAPKSLIYSASSLRTGVPSKFSGSGSGTDFTLTISSLQPEDFATYYCQQYSSYPPTFGPGTKVDIKR; not met
H1H3401P (antibody, V domains shown) VH: QVQLVESGGGVVQPGRSLRLSCEASGFTFSSYGMHWVRQAPGNGLEWIAVISSDGNNKYYIESVKGRFTMSRDNSKNTLYLQLNSLRTEDTAVYYCATYNWNDDGDGVFDYWGQGTLVTVSS VL: DIQMTQSPSSVSASVGDRVTITCRASQGISNWLAWYQQKPGKAPKLLIYGTSSLQSGVPSRFSGSGSGTDFTLTISSLQPEDFATYYCQQVKSFPYTFGQGTKLEIKR; met
H1H3335P (antibody, V domains shown) VH: EVQLVESGGGLVRPGGSLRLSCAASGFTFRIYAMSWVRQAPGKGLEWVSGISGSGDNTYYTDSVKGRFIISRDNSKSTLYLQMNSLRAEDTAVYYCARGWELLNYWGQGTLVTVSS VL: DIQMTQSPSSLSAFVGDRVTITCRASQDISNHLAWFQQKPGKVPKSLIYAASSLQSGVPSKFSGSGSGTDFTLTISSLQPEDFATYYCQQYGLYPPTFGPGTKVDIKR; not met
H1H3394P (antibody, V domains shown) VH: QVQLVQSGAEVQKPGASVKVSCKASGYTFTDYYIHWVRQAPGQGLEWMGWINPKTGGTNYAPKFQGRVTMTRDSSIITAYMDLTRLTSDDTAVFYCARRGYNSRWSVFDYWGQGTLVTVSS VL: EIVLTQSPGTLSLSPGERATLSCRASQSVYSNYLAWYQQKRGLAPRLLIYGASSRATGIPDRFSGSGSGTDFTLTISRLEPEDFAVYYCQQHGGSPVTFGGGTKVEIKR; met

Please state whether koff is below 0.0004 s⁻¹ for H1H3343P (antibody, V domains shown) VH: EVQLVESGGGLVQPGGSLRLSCVASGFNFRIYAMSWVRQAPGKGPEWVSGISGSGDNTYYAASVKGRFTVSRDNSKNTLYLQMTSLRAEDTAVFYCARGWELLNYWGQGTLVTVSS VL: DIQMTQSPSSLSASVGDRVTITCRASLDIGNFLAWFQQKPGTAPKSLIYSASSLQTGVPSKFSGSGSGTDFTLTISSLQPEDFATYYCQQYNSYPPTFGPGTKVDIKR not met

Please state whether koff is below 0.0004 s⁻¹ for H1H3411P (antibody, V domains shown) VH: EVQLVESGGGLVQPGGSLRLSCAASGFTFSRYGMNWVRQAPGKGLEWVSAISGSGGSTYHADSVKGRFTISRDNSKNTLYLQMNSLRAADTAIYFCASYNWNDGVDVWGQGTTVTVS VL: DIQMTQSPSSVSASIGDRVTITCRASQGISNWLAWYQQKPGKAPKLLIYGASSLQSGVSSRFSGSGSGTDFTLTIISLQPEDFATYYCQQANSFPYTFGQGTKLEIKR met

Please state whether koff is below 0.0004 s⁻¹ for H1H3337P (antibody, V domains shown) VH: EVQLVESGGGLVQPGGSLRLSCAASGFTFSIYAMSWVRQAPGKGLEWVSGISGSGGRTYYADSVKGRFTISRDNSKNTLYLQMNSLRVEDTAVYYCARGWELLNFWGQGTLVTVSS VL: DIQMTQSPSSLSASVGDRVTITCRASQGISNNLAWFQQKPGKAPKSLIYAASSLKSGVPSKFSGSGSGTDFTLTINSLQPEDFATYYCHQYNSYPPTFGPGTKVDIKR not met
